For each entry below, report its solubility value.
# experimental.details: Aqueous solubility of the compound in water at pH 7.0 after overnight incubation by HPLC-UV analysis
# Assay type: physicochemical
Numeric answer only, unit µg/mL assumed.

Exercise: Query solubility for CC(C)OC(=O)OCn1nc(Cn2ccc(C(F)(F)F)c(Oc3cc(Cl)cc(C#N)c3)c2=O)n(C)c1=O
Solution: 27

Exercise: Query solubility for Cn1c(Cn2ccc(C(F)(F)F)c(Oc3cc(Cl)cc(C#N)c3)c2=O)nn(COP(=O)(O)O)c1=O
Solution: 4560

* * *

# experimental.details: Aqueous solubility of the compound at phosphate buffer of pH 2.0 after overnight incubation by HPLC-UV analysis
# Type: physicochemical
parameter.measured: solubility (µg/mL)
Numeric answer only, unit µg/mL assumed.

Exercise: Query solubility for CC(C)OC(=O)OCn1nc(Cn2ccc(C(F)(F)F)c(Oc3cc(Cl)cc(C#N)c3)c2=O)n(C)c1=O
Solution: 14

Exercise: Query solubility for Cn1c(Cn2ccc(C(F)(F)F)c(Oc3cc(Cl)cc(C#N)c3)c2=O)nn(COP(=O)(O)O)c1=O
Solution: 4220
